test: Metabolic stability in mouse liver microsomes assessed as parent compound remaining at 10 uM measured after 60 mins; assay type: ADME, Microsome; conditions: read-out: Stability
parameter: remaining at 1 h, 10 µM
Just so you know, I need the unit written after the number.

Which measured remaining at 1 h, 10 µM value corresponds to C[C@H](NC(=O)c1c(Cc2ccc(C(F)(F)F)cc2)sc2c1CCOC2)c1ccc(C(=O)O)cc1 ? 87.9%

For O=C(O)c1ccc(CNC(=O)c2c(Cc3ccc(F)cc3)sc3c2CCOC3)cc1 then? 92.1%

For C[C@H](NC(=O)c1c(C(F)F)nn(C)c1Oc1cccc(C(F)(F)F)c1)c1ccc(C(=O)O)cc1 [PALUPIPRANT] then? 95.7%
